Provenance of the data: ChEMBL document CHEMBL4732138

Could you please report measured Activity for the items listed next?
- subject-of-test: Tubulin (Homo sapiens) (UniProt P68371+Q9H4B7+P0DPH7+P68366+Q13509+Q71U36+P04350+Q3ZCM7+P07437+P68363+Q9BQE3+Q6PEY2+Q13885+Q9BVA1+Q9BUF5)
- protocol-text: Stabilization of microtubules in human QBI293 cells assessed as decrease in alpha-tubulin levels at 1 to 10 uM after 4 hrs by ELISA relative to control
- Type: cell-based
- Set-up: scale not given: the % may be the effect or the level left
- assay-context: dose 1-10 µM

Sample answers from the record:
q: Please give the measured Activity for this compound: C[C@H](Nc1c(-c2c(F)cc(OCCCO)cc2F)c(Cl)nc2ncnn12)C(F)(F)F
a: > 15%

q: Please give the measured Activity for this compound: C[C@H](Nc1c(-c2c(F)cc(Cl)cc2F)c(Cl)nc2ncnn12)C(F)(F)F
a: > 15%

q: Please give the measured Activity for this compound: CSc1cc(F)c(-c2c(Cl)nc3ncnn3c2N[C@@H](C)C(F)(F)F)c(F)c1
a: > 15%

q: Please give the measured Activity for this compound: COc1cc(F)c(-c2c(Cl)nc3ncnn3c2N[C@@H](C)C(F)(F)F)c(F)c1
a: > 15%

q: Please give the measured Activity for this compound: Cc1cc(F)c(-c2c(Cl)nc3ncnn3c2N[C@@H](C)C(F)(F)F)c(F)c1
a: > 15%

More entries:
q: Please give the measured Activity for this compound: C[C@H](Nc1c(-c2c(F)cc(O)cc2F)c(Cl)nc2ncnn12)C(F)(F)F
a: > 15%

====

- subject-of-test: Tubulin (Homo sapiens) (UniProt P68371+Q9H4B7+P0DPH7+P68366+Q13509+Q71U36+P04350+Q3ZCM7+P07437+P68363+Q9BQE3+Q6PEY2+Q13885+Q9BVA1+Q9BUF5)
- protocol-text: Stabilization of microtubules in human QBI293 cells assessed as fold change in acetylated tubulin levels at 1 uM after 4 hrs by ELISA relative to DMSO
- Assay type: cell-based
Could you please report measured fold change (FC) for the items listed next?
Give bare numbers.

Sample answers from the record:
q: Please give the measured fold change (FC) for this compound: C[C@H](Nc1c(-c2c(F)cc(C#N)cc2F)c(Cl)nc2ncnn12)C(F)(F)F
a: 1.9

q: Please give the measured fold change (FC) for this compound: CC(C)Nc1c(-c2c(F)cc(F)cc2F)c(Cl)nc2ncnn12
a: 1.15

q: Please give the measured fold change (FC) for this compound: Fc1cc(F)c(-c2c(Cl)nc3ncnn3c2N2CCCCCCC2)c(F)c1
a: 3.7

q: Please give the measured fold change (FC) for this compound: CO[C@H]1C[C@H]2CC[C@@H](C1)N2c1c(-c2c(F)cc(C#N)cc2F)c(Cl)nc2ncnn12
a: 2.61

q: Please give the measured fold change (FC) for this compound: Nc1c(-c2c(F)cc(F)cc2F)c(Cl)nc2ncnn12
a: 1.18

q: Please give the measured fold change (FC) for this compound: Fc1cc(F)c(-c2c(Cl)nc3ncnn3c2N2CCCCCC2)c(F)c1
a: 4.16

q: Please give the measured fold change (FC) for this compound: CC(C)[C@@H](C)Nc1c(-c2c(F)cccc2F)c(Cl)nc2ncnn12
a: 4.36

q: Please give the measured fold change (FC) for this compound: Oc1c(-c2c(F)cc(F)cc2F)c(Cl)nc2ncnn12
a: 1.04

Hi team, please reply with fold change (FC) for each item in this list.
1. C[C@H](Nc1c(-c2ccccc2F)c(Cl)nc2ncnn12)C(F)(F)F
2. Fc1cc(F)c(-c2c(Cl)nc3ncnn3c2Nc2ccccc2)c(F)c1

a:
[1.73, 1.14]
